- Tested on: TK-10 renal
- assay: NCI tumour cell line growth inhibition, 48 h
measure_name: TGI

* C/C1=C/C(C)CC(C)OC(=O)C(C)NC(=O)C(Cc2ccc(O)c(I)c2)N(C)C(=O)C(C)NC(=O)C(C)C1 (centres undefined) | 0.046 µM
* CC1(C)CC(=O)C2=C(C1)NC1=C(C(=O)CC(C)(C)C1)C2c1ccc([N+](=O)[O-])cc1 | > 100 µM
* Clc1ccccc1C1=NN(c2ccccc2)C2c3ccccc3OCC12 (centres undefined) | > 100 µM
* CCOC(=O)Cc1csc2[n+]1C(=O)/C(=C/c1cccc(OC)c1O)S2 | > 100 µM
* CN1CCN(c2ccc(Nc3nc(N)c(C(=O)c4ccc5c(c4)OCCO5)s3)cc2)CC1 | 10.1 µM
* CC(=O)Oc1ccc2c(c1)oc1c3ccc(OC(C)=O)cc3n(C)c(=O)c21 | > 100 µM
* Brc1c(C#CCC(c2ccccc2)(c2ccccc2)c2ccccc2)ccc(C#CCC(c2ccccc2)(c2ccccc2)c2ccccc2)c1Br | > 100 µM
* COC(=O)C1c2c(c3ccccc3n2C(=O)OC)CCN2CCC1C(S(=O)(=O)c1ccccc1)C2=O (centres undefined) | > 100 µM
* COc1cc(C2SC(N)=Nc3c2c(C)nn3C(=O)c2ccccc2O)ccc1O (centres undefined) | > 10 µM
* CC(C)C1CC2C(=O)N(c3ccccc3)C(=O)C2c2[nH]c3ccccc3c21 (centres undefined) | 97.4 µM
* CCn1cc(-c2ccnc3[nH]ccc23)c(-c2cccc(NC(=O)Nc3ccc(OCc4ccccc4)cc3)c2)n1 | > 25 µM
* CN(C)Cc1cc(C(C)(C)C)ccc1-c1ccc(C(C)(C)C)cc1CN(C)C | > 100 µM
* COC(=O)c1c(O)c([N+](=O)[O-])cc2c1c1c(n2Cc2ccccc2)C(=O)c2ccccc2C1=O | > 100 µM
* O=Cc1ccc(-c2ccc(-c3nc4ccccc4o3)cc2)s1 | 81.3 µM
* Cc1ccc(S(=O)(=O)N2C[C@](O)(c3ccccc3)[C@H]2C)cc1 | > 100 µM
* COP(=O)(Cc1ccccc1)Cc1ccccc1 | > 100 µM
* Cc1cc2cn3c4ccc(O)cc4[nH]c(=O)c3c2cc1C | 2.13 µM
* Cc1cc(S(=O)(=O)/N=C(\[N-]S(=O)(=O)c2ccc(Cl)cc2)[n+]2ccc(N(C)C)cc2)c(S)cc1Cl | > 100 µM
* COc1ccc(C(=O)C(c2ccc(OC)cc2)C2OC(=O)C(Cl)=C2Cl)cc1 (centres undefined) | > 100 µM
* Clc1ccc(C2=Nn3c(nnc3-c3cc(Cl)cc(Cl)c3Cl)SC2)cc1 | 35.9 µM
* CN(CC#N)C1CCCC[C@H]1O (some centres undefined) | > 100 µM
* C#CCN(N=O)C(=O)NC(CCCNC(=O)OCc1ccccc1)C(=O)OCc1ccccc1 (centres undefined) | > 100 µM
* O=C(O)c1ccc(S(=O)(=O)Nc2ccc3oc4c(c3c2)C(=O)CCC4)cc1 | > 100 µM
* Cc1nc(CN2CCCCC2)c(O)c(=O)[nH]1 | > 100 µM
* N#CC(C#N)N=Nc1ccc(Br)cc1 | 43.2 µM
* CC(=O)Oc1cc2c(c3ncccc13)OC(C)(C)C2 | 26.3 µM
* CN(C)C/C=C/C(=O)Nc1cc2c(Nc3ccc(F)c(Cl)c3F)ncnc2cc1OCCOC(F)F | 0.738 µM
* COC(=O)Nc1nc2ccc(C(=O)c3ccc(N(C)C4COC4)cc3)cc2[nH]1 | > 100 µM
* COc1cc(Nc2ncc(F)c(Nc3ccc4c(n3)NC(=O)C(C)(C)O4)n2)cc(OC)c1OC | > 10 µM
* COc1cc(C=C2C(C)=NN(c3cccc(Cl)c3)C23C(Cl)C(=O)N3c2nc3ccccc3s2)ccc1O (centres undefined) | > 100 µM
* CCN(CC)CCCC(C)Nc1nc(C)cc(Nc2ccc3nc(C)cc(N)c3c2)n1 (centres undefined) | > 100 µM
* CN(C)CCSc1cccc(-c2cc(-c3cccc(SCCN(C)C)c3)nc(SCCN(C)C)n2)c1 | 9.65 µM
* Cc1ccc([N+](=O)[O-])cc1S(=O)(=O)Nc1ccc(C2=NNC(c3ccccc3O)C2)cc1 (centres undefined) | > 100 µM
* CN1CCN(c2cc(C(=O)Nc3cc4cc(-c5cnn(C)c5)ccc4cn3)ccn2)CC1 | 11.4 µM
* NC(=O)c1coc(C2OC(CO)C(O)C2O)n1 (centres undefined) | > 100 µM
* S=C(Nc1ccc(Cl)cc1)Nc1ccc(-c2nc3ccccc3o2)cc1 | 74.1 µM
* COc1ccc(C[C@@H]2NC[C@@H](O)[C@@H]2OC(C)=O)cc1 | 0.254 µM
* COc1ccc(N/N=C(\CCN(C)C)c2ccccc2)cc1 | 6.02 µM
* Cc1ccc2c(sc(-c3ccc4c(c3)sc(-c3ccc5c(c3)sc(-c3ccc(N(C)C)cc3)[n+]5C)[n+]4C)[n+]2C)c1S(=O)(=O)O (tested in a mixture with another compound) | > 100 µM

These measurements were taken from PubChem BioAssay (NCI).
